- system name: TRPML2 (Homo sapiens)
- Construct: expressed in transfected cells
- Sequence (Q8IZK6 whole entry): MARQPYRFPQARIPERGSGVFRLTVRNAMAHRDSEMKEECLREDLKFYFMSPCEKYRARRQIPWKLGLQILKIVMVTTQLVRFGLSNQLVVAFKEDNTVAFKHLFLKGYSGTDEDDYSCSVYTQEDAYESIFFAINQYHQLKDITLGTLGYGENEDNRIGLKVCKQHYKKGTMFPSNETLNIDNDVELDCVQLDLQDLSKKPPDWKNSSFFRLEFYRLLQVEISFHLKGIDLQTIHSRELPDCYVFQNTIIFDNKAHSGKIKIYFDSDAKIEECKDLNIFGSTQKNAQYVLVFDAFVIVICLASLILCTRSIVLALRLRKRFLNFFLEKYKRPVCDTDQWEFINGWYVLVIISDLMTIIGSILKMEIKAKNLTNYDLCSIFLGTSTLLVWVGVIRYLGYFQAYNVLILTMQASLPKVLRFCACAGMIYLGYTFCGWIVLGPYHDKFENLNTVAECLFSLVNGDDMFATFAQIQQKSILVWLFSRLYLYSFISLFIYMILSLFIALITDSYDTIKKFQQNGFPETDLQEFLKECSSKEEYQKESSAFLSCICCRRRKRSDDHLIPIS
- experimental protocol: Fluorescent TRPML2 assay (performed as for TRPML1, substituting the TRPML2 subtype)
- Assay type: cell-based
- condition summary: fluorescent calcium assay
pEC50: −log10 of the molar value.
quantity kind: pEC50

[
  {
    "molecule": "C[C@H]1CN(C(=O)OC(C)(C)C)CCN1c1ncnc2c1c(C1CC1)cn2-c1cc(C#N)cnn1",
    "experimental value": "5.70 to 6.30"
  }
]

[Q] Give pEC50 for "C[C@@H]1CN(c2ncnc3c2c(-c2ccccn2)cn3-c2cccc(Cl)c2)[C@@H](C)CN1C(=O)OC(C)(C)C" tested on TRPML2 (Homo sapiens).
[A] 6.30 to 7.00

[Q] Give pEC50 for "C[C@@H]1CN(c2ncnc3c2c(C2CC2)cn3-c2cccc(F)c2F)CCN1C(=O)OC(C)(C)C" tested on TRPML2 (Homo sapiens).
[A] 5.70 to 6.30

[Q] Give pEC50 for "C[C@@H]1CN(c2ncnc3c2c(-c2ccccc2F)cn3-c2cccnc2)[C@@H](C)CN1C(=O)OC(C)(C)C" tested on TRPML2 (Homo sapiens).
[A] 5.70 to 6.30

====

Measured EC50 accompanies every entry in the list below.
- system name: UniProtKB Q9GZU1
- Sequence (Q9GZU1 whole entry L15A/L16A/L577A/L578A, form open): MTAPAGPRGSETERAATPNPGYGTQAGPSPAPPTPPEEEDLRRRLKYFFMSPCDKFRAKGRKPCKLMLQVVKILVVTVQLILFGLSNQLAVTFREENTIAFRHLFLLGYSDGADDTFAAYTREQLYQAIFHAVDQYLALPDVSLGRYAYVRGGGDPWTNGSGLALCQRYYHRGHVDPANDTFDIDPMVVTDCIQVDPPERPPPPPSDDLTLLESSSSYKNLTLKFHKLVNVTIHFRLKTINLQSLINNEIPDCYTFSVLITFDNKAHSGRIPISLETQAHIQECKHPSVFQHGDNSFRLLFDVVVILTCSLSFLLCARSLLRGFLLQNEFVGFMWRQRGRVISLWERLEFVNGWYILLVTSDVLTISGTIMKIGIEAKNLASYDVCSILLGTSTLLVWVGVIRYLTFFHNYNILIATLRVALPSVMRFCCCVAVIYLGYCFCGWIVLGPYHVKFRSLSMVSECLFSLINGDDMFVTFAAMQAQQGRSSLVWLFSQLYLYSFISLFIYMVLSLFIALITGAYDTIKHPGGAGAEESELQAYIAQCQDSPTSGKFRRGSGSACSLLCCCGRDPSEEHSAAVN
- experimental protocol: Fluorescent TRPML1 assay (Fluo4-AM calcium fluorescence in doxycycline-induced HEK-293 Trex cells)
- Type: cell-based
- condition summary: fluorescent calcium assay
- Method: HEK-293 Trex cells were stably transfected with a construct consisting of the human coding sequence for TRPML1 cloned into the […] plasmid pCDNA5 T/O. Mutations were introduced into the TRPML1 sequence to facilitate expression on the cell surface (Silvia Vergarajauregui, Rosa Puertollano, Traffic. 2006 March; 7(3): 337-353). […] The Trypsin-EDTA is diluted with growth media, and cells are counted. […] EC50 values were calculated using a non-linear regression of Prism. […]

Some compounds with known EC50 results, for comparison:
[
  {
    "compound": "C[C@H]1CN(C(=O)OC(C)(C)C)CCN1c1ncnc2c1c(C1CC1)cn2-c1ccc(C#N)n1C",
    "experimental value": "500 to 2000 nM"
  },
  {
    "compound": "C[C@@H]1CN(c2ncnc3c2c(C2CC2)cn3-c2cc(C#N)ccn2)CCN1C(=O)OCC(F)(F)F",
    "experimental value": "< 100 nM"
  },
  {
    "compound": "C[C@@H]1CN(c2ncnc3c2c(-c2cnccn2)cn3-c2cc(F)cc(Cl)c2)CCN1C(=O)OC(C)(C)C",
    "experimental value": "100 to 500 nM"
  },
  {
    "compound": "CCCN(CC)c1cn(-c2cc(C#N)ccn2)c2ncnc(N3CCN(C(=O)OC(C)(C)C)C[C@@H]3C)c12",
    "experimental value": "< 100 nM"
  },
  {
    "compound": "C[C@H]1CN(C(=O)OC(C)(C)C)CCN1c1ncnc2c1c(-c1cnccn1)cn2-c1cccc(OC(F)(F)F)c1",
    "experimental value": "100 to 500 nM"
  }
]

[Q] Tell me its EC50 given "Cc1cncc(-n2cc(-c3cccnc3)c3c(N4C[C@@H](C)N(C(=O)OC(C)(C)C)C[C@@H]4C)ncnc32)c1" as the entry.
[A] 100 to 500 nM

[Q] Tell me its EC50 given "CC(C)(CF)OC(=O)N1CCN(c2ncnc3c2c(-c2ccccc2F)cn3-c2cccnc2)CC1" as the entry.
[A] 500 to 2000 nM

[Q] Tell me its EC50 given "C[C@H]1CN(C(=O)OC(C)(C)C)CCN1c1ncnc2c1c(C1CC1)cn2-c1cc(C#N)cc(C#N)c1" as the entry.
[A] 100 to 500 nM

[Q] Tell me its EC50 given "C[C@@H]1CN(c2ncnc3c2c(N2CCC(F)(F)C2)cn3-c2cccc(Cl)c2)CCN1C(=O)OC(C)(C)C" as the entry.
[A] < 100 nM

Provenance of the data: patent US20250136606A1
